The measured values listed here are drawn from patent US20250163088A1.

Test system: A2780 human ovarian carcinoma cells
Assay: SRB proliferation assay (48 h) on A2780 cells
Type: cell-based
Details: SRB 48 h, nonlinear regression; N/A = cannot be calculated/no effect; read-out: A2780 IC50
Assignment: determine reported pIC50 for the given compounds.
Notebook: values listed as pIC50 are -log10 of the concentration (mol/L).

-- ask Name the recorded pIC50 for N.N.[Cl][Pt][Cl] [cisplatin] .
-- reply 5.92

-- ask Name the recorded pIC50 for O=C1[O][Pt]2([NH][C@@H]3CCCC[C@H]3[NH]2)[O]C1=O .
-- reply 6.92

* * *

Test system: A2780 human ovarian carcinoma cells
Experiment: SRB proliferation assay (48 h) on A2780 cells
Type: cell-based
Details: SRB assay, 48 h; read-out: IC50 value on (cisplatin-sensitive) A2780 cells
assayReadout: IC50 (nM)
Numbers only here, please. The scale is nM.

-- ask Name the recorded IC50 for N.N.[Cl][Pt][Cl] [cisplatin] .
-- reply 1210
